Target: fMet-Leu-Phe receptor (Homo sapiens, UniProt P21462)
Experiment: Inhibitory activity against human formylpeptide receptor (FPR) of human leukemia HL-60 cells
Type: cell-based
Conditions: hl-60
Assay metric: IC50

Note to self: IC50 of "CC/C=C/C[C@@H](C)[C@@H](O)[C@H]1C(=O)N[C@@H](CC)C(=O)N(C)CC(=O)N(C)[C@@H](Cc2ccccc2)C(=O)N[C@@H](C(C)C)C(=O)N(C)[C@@H](CC(C)C)C(=O)N[C@@H](C)C(=O)N[C@H](C)C(=O)N(C)[C@@H](CC(C)C)C(=O)N(C)[C@@H](CC(C)C)C(=O)N(C)[C@@H](C(C)C)C(=O)N1C" with fMet-Leu-Phe receptor (Homo sapiens, UniProt P21462) was > 10 µM

Note to self: IC50 of C/C=C/C[C@@H](C)[C@@H](O)C1NC(=O)[C@H](C(C)C)N(C)C(=O)[C@H](CC(C)C)N(C)C(=O)[C@H](CC(C)C)N(C)C(=O)[C@@H](C)NC(=O)[C@H](C)NC(=O)[C@@H](CC(C)C)N(C)C(=O)[C@@H](C(C)C)NC(=O)[C@@H](CC(C)C)N(C)C(=O)CN(C)C(=O)[C@H]([C@@H](C)O)NC1=O (stereo partly drawn) with fMet-Leu-Phe receptor (Homo sapiens, UniProt P21462) was 5.5 µM

Note to self: IC50 of "C/C=C/C[C@@H](C)[C@@H](O)[C@H]1C(=O)N[C@@H](CC)C(=O)N(C)CC(=O)N(C)[C@H](CC(C)C)C(=O)N[C@H](C(C)C)C(=O)N(C)[C@H](CC(C)C)C(=O)N[C@@H](C)C(=O)N[C@H](C)C(=O)N(C)[C@@H](CC(C)C)C(=O)N(C)[C@@H](CC(C)C)C(=O)N(C)[C@H]([C@H](C)CC)C(=O)N1C" with fMet-Leu-Phe receptor (Homo sapiens, UniProt P21462) was 1.57 µM

====

Molecular target: UniProt P21462
Sequence (whole entry): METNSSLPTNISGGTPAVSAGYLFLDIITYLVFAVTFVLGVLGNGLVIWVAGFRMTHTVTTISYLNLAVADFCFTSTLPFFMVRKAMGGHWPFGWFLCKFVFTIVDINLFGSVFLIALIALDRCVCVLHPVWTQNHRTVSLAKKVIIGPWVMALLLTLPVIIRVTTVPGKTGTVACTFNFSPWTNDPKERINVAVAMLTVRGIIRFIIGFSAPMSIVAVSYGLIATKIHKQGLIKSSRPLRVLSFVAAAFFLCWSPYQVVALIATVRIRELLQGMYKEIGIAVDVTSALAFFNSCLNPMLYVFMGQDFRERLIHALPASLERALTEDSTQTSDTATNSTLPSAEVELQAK
Assay: Inhibitory activity against Human formylpeptide receptor (FPR) of human leukemia HL-60 cells
Format: cell-based
Listing: IC20 of selected compounds
Reply with just the number (in nM).

"CC/C=C/C[C@@H](C)[C@@H](O)[C@H]1C(=O)N[C@@H](CC)C(=O)N(C)CC(=O)N(C)[C@H](CC(C)C)C(=O)N[C@H](C(C)C)C(=O)N(C)[C@H](CC(C)C)C(=O)N[C@@H](C)C(=O)N[C@H](CCCCN)C(=O)N(C)[C@@H](CC(C)C)C(=O)N(C)[C@@H](CC(C)C)C(=O)N(C)[C@@H](C(C)C)C(=O)N1C" yielded IC20 of 500

"C/C=C/C[C@@H](C)[C@@H](O)[C@H]1C(=O)N[C@@H](C)C(=O)N(C)CC(=O)N(C)[C@H](CC(C)C)C(=O)N[C@H](C(C)C)C(=O)N(C)[C@H](CC(C)C)C(=O)N[C@@H](C)C(=O)N[C@H](C)C(=O)N(C)[C@@H](CC(C)C)C(=O)N[C@@H](CC(C)C)C(=O)N(C)[C@@H](C(C)C)C(=O)N1C" yielded IC20 of 200

"C/C=C/C[C@@H](C)[C@@H](O)[C@H]1C(=O)N[C@@H](CCC)C(=O)N(C)CC(=O)N(C)[C@H](CC(C)C)C(=O)N[C@H](C(C)C)C(=O)N(C)[C@H](CC(C)C)C(=O)N[C@@H](C)C(=O)N[C@H](C)C(=O)N[C@@H](CC(C)C)C(=O)N(C)[C@@H](CC(C)C)C(=O)N(C)[C@@H](C(C)C)C(=O)N1C" yielded IC20 of 2100
